Listed molecules paired with reported pIC50
Assayed system: recombinant human Wee1A kinase (Homo sapiens)
Construct: full length Wee1A kinase was expressed by baculovirus in insect cells; purchased Invitrogen PV3817; host or cells: insect cells (baculovirus)
Sequence (P30291 whole entry): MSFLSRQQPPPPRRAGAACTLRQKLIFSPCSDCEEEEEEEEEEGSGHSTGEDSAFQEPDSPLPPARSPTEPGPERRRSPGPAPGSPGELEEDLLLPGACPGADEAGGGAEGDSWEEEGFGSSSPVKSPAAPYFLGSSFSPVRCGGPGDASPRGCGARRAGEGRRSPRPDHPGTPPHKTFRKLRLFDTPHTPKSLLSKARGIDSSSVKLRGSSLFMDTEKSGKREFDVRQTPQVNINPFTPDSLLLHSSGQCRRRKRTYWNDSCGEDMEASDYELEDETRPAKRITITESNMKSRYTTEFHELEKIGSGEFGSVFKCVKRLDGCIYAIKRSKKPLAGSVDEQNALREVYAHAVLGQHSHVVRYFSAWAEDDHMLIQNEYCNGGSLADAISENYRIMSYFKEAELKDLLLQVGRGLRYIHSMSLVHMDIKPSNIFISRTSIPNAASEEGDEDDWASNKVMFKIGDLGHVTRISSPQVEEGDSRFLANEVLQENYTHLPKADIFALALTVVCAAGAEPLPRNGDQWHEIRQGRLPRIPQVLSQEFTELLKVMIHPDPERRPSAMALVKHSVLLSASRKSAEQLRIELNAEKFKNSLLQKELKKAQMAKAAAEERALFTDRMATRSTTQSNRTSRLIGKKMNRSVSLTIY
Measurement notes: LanthaScreen Europium (Eu) Kinase Binding Assay, Wee1A kinase (TR-FRET tracer displacement)
Conditions: 30 nM tracer 178, 5 nM Wee1A kinase, 60 minutes at room temperature
pIC50: −log10 of the molar value.

INSERT INTO results (molecule, assayed_system, reported_property, result) VALUES
  ('COc1nc(Nc2ccc(C3CCN(C)CC3)c(C)c2)ncc1C(=O)Nc1c(Cl)cccc1C(F)(F)F [Compound 122]', 'recombinant human Wee1A kinase (Homo sapiens)', 'pIC50', '≥ 8.00'),
  ('COc1nc(Nc2ccc(C3CCN(C)CC3)c(C)c2)ncc1C(=O)Nc1c(C)ccnc1C [Compound 112]', 'recombinant human Wee1A kinase (Homo sapiens)', 'pIC50', '7.00 to 8.00'),
  ('COc1nc(Nc2ccc(OCCCN(C)C)c(C)c2)ncc1C(=O)Nc1c(Cl)ccc(O)c1C [Compound 158]', 'recombinant human Wee1A kinase (Homo sapiens)', 'pIC50', '≥ 8.00');

Query molecule follows.
Exam item: Answer with reported pIC50 of COc1nc(Nc2ccc(OC3CCN(C)CC3)c(C)c2)ncc1C(=O)Nc1c(Cl)cccc1Cl [Compound 145]
Marked response: ≥ 8.00
